I'd appreciate it if you could supply pIC50 values for the items below.
# Test system: Bacterial Transcription/Translation
# test protocol: bacterial transcription/translation assay (pBestLuc luciferase, E. coli S30 extract)
# Format: biochemical
# experimental setup: Tables 4-7; read-out: Transcription/Translation, IC50
pIC50: −log10 of the molar value.

Q: Suppose we examine the compound Cc1ccc2nc(N)n(CCCN(C)CCCn3c(N)nc4ccc(C)cc43)c2c1 ; what pIC50 value has been reported?
Result: 4.92 to 5.22

Q: Try this compound too: CN(CCn1c(N)nc2ccccc21)CCn1c(N)nc2ccccc21 [X = H]
Result: < 4.00

Q: Note, next up: COC(=O)c1ccc2c(c1)nc(N)n2CCCN(C)CCCn1c(N)nc2cc(C(=O)OC)ccc21
Result: < 4.00

Q: Okay, and CN(CCCn1c(N)nc2cc(Cl)c(Cl)cc21)CCCn1c(N)nc2cc(Cl)c(Cl)cc21 [drawing 35] ?
Result: < 4.00

Q: Now consider CN(CCCn1c(N)nc2cc(C#N)ccc21)CCCn1c(N)nc2cc(C#N)ccc21 and answer again.
Result: < 3.70

Q: Same lookup for CN(CCCn1c(N)nc2ccccc21)CCCn1c(N)nc2ccccc21 , please.
Result: 4.60

Q: Then what about the compound CN(CCn1c(N)nc2cc(Cl)c(Cl)cc21)CCn1c(N)nc2cc(Cl)c(Cl)cc21 [X = Cl] ?
Result: < 4.00

Q: Request: CN(CCCn1c(N)nc2cc(C(F)(F)F)ccc21)CCCn1c(N)nc2cc(C(F)(F)F)ccc21
Result: < 4.00

Q: What do you have for CN(C)CCCn1c(N)nc2ccccc21 [drawing 42] ?
Result: < 4.00

Q: How about this compound: CN(CCCn1c(N)nc2cc(Br)ccc21)CCCn1c(N)nc2cc(Br)ccc21
Result: < 4.00

Q: Now this one: CN(CCCn1c(N)nc2cc(Cl)c(Cl)cc21)CCCn1c(N)nc2cc(Cl)c(Cl)cc21 [X = N—Me]
Result: 4.60

----------
# Tested on: Bacterial Transcription/Translation
# test protocol: bacterial transcription/translation assay (pBestLuc luciferase, E. coli S30 extract)
# Format: biochemical
# experimental setup: Tables 1 and 2; bacterial transcription/translation; read-out: T/T IC50 MIC
property: IC50

Q: Param item = CC(C)(C)OC(=O)N1CCC(c2nc3cc(Cl)c(Cl)cc3n2Cc2ccc(CBr)cc2)CC1 ; retrieve measured IC50.
Result: > 100 µM

----------
# Tested on: Ag IIa HCV IRES Target
# test protocol: MASS screening against Ag IIa HCV IRES target
# Type: binding
# experimental setup: target conc. […], ligand conc. 50 μM; by mass spectral analysis
Doc: threshold 7 (exclusive). Items with Selectivity beneath it return Satisfied; others return Not satisfied.

Q: API: query returns whether the compound falls strictly under 7 in Selectivity. Query: COc1ccc2nc(N)n(CCCN(C)C)c2c1
Result: Not satisfied

Q: Then this compound: CN(C)CCCn1c(N)nc2cc(CN)ccc21
Result: Satisfied

Q: Now this one: Cc1ccc2nc(N)n(CCCN(C)C)c2c1
Result: Satisfied

Q: Record: CN(C)CCCOc1ccc2nc(N)n(CCCN(C)C)c2c1
Result: Not satisfied

Q: One more compound: CN(C)CCCn1c(N)nc2ccccc21
Result: Satisfied
